Each entry below carries its reported MFI.
targetOfAssay: T1, human CD3 on human T cells (Jurkat) (human, UniProt P07766 23-207; P04234 22-171; P09693 23-182)
T1 construct: whole, on cells; also called huCD3+; cell surface CD3 on human (Jurkat) T cells
T1 sequence (P07766 23-207, chain 1 of 3): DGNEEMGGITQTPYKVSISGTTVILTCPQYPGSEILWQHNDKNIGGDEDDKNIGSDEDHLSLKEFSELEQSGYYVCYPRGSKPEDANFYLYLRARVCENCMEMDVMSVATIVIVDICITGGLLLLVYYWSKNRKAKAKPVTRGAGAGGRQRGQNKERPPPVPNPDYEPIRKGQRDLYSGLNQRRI
T1 sequence (P04234 22-171, chain 2 of 3): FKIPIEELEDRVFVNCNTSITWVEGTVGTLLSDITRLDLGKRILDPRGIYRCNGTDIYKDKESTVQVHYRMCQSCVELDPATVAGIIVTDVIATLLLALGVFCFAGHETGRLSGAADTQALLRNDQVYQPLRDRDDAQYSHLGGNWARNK
T1 sequence (P09693 23-182, chain 3 of 3): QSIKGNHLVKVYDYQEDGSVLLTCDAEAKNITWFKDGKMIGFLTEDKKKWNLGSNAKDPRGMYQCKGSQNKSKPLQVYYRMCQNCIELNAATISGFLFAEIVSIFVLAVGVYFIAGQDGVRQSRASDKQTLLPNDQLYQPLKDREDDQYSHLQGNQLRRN
protocol: flow cytometry, Jurkat cells, 0 nM antibody (background)
# print the numeric value only

HuL4H2 (Fab, V domains shown, Humanized Fab expressed in Expi293F; also called VL4 + VH2 humanized Fab) VH: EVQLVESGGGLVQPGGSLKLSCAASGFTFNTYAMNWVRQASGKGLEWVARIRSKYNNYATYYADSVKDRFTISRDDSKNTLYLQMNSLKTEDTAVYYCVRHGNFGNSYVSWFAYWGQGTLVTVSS VL: QAVVTQEPSLTVSPGGTVTLTCGSSTGAVTTSNYANWVQQKPGQAFRGLIYGTNKRAPWTPARFSGSLLGDKAALTISGAQPEDEAEYYCALWYSNLWVFGGGTKLTVL :: 559
huL5H2 (heavy chain SEQ ID NO: 41 and light chain SEQ ID NO: 39) (Fab, V domains shown, also called VL5 kappa + H2 Fab) VH: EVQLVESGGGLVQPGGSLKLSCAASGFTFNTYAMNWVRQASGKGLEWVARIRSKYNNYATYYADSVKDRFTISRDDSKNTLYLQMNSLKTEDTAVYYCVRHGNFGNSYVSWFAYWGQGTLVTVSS VL: QAVVTQEPSLTVSPGGTVTLTCRSSTGAVTTSNYANWVQQKPDHLFRGLIGGTNKRAPGTPARFSGSLLGDKAALTISGAQPEDEAEYYCALWYSNLWVFGGGTKLTVLK :: 1400

Now turn to the next binder.
[ask] Note MFI for the binder shown: HuL3H2 (Fab, V domains shown, Humanized Fab expressed in Expi293F; also called VL3 + VH2 humanized Fab) VH: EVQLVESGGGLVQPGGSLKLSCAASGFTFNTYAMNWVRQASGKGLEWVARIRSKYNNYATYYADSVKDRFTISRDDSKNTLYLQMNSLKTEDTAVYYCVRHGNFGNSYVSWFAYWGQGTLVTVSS VL: QAVVTQEPSLTVSPGGTVTLTCGSSTGAVTTSNYANWVQQKPGQAFRGLIGGTNKRAPWTPARFSGSLLGGKAALTISGAQPEDEAEYYCALWYSNLWVFGGGTKLTVL
[reply] 559
